Record form. Attribute: BMPRIa binding (relative to wild type = 1.0). Fill in for each entry.
# test.system: T1, BMPRIa receptor-Fc fusion (UniProt P36894 24-152, limits assumed)
# T1 construct: also called ALK-3
# T1 sequence (P36894 24-152 limits assumed): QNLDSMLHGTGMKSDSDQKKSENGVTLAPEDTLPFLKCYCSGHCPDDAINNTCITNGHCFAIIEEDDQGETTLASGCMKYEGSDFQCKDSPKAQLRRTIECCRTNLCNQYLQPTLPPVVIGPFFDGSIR
# procedure.details: ELISA-like plate assay, captured BMP-7 from conditioned media, receptor-Fc detection

Req: So what's the measured BMPRIa binding (relative to wild type = 1.0) for this one? BMP-7 variant L90P (ligand, In conditioned media; numbering on mature BMP-7) STGGKQRSQNRSKTPKNQEALRMASVAENSSSDQRQACKKHELYVSFRDLGWQDWIIAPEGYAAYYCEGECAFPLNSYMNATNHAIVQTPVHFINPETVPKPCCAPTQLNAISVLYFDDSSNVILKKYRNMVVRACGCH
Resp: 0.46 relative to wild type

Req: # lookup: BMPRIa binding (relative to wild type = 1.0) of BMP-7 variant M23S (ligand, In conditioned media; numbering on mature BMP-7) STGGKQRSQNRSKTPKNQEALRSASVAENSSSDQRQACKKHELYVSFRDLGWQDWIIAPEGYAAYYCEGECAFPLNSYMNATNHAIVQTLVHFINPETVPKPCCAPTQLNAISVLYFDDSSNVILKKYRNMVVRACGCH
Resp: 0.88 relative to wild type

Req: Requested read-out: BMPRIa binding (relative to wild type = 1.0). Entry: BMP-7 variant L90G (ligand, In conditioned media; numbering on mature BMP-7) STGGKQRSQNRSKTPKNQEALRMASVAENSSSDQRQACKKHELYVSFRDLGWQDWIIAPEGYAAYYCEGECAFPLNSYMNATNHAIVQTGVHFINPETVPKPCCAPTQLNAISVLYFDDSSNVILKKYRNMVVRACGCH
Resp: 0.55 relative to wild type

Req: Given the binder BMP-7 variant F73K (ligand, In conditioned media; numbering on mature BMP-7) STGGKQRSQNRSKTPKNQEALRMASVAENSSSDQRQACKKHELYVSFRDLGWQDWIIAPEGYAAYYCEGECAKPLNSYMNATNHAIVQTLVHFINPETVPKPCCAPTQLNAISVLYFDDSSNVILKKYRNMVVRACGCH , what is its reported BMPRIa binding (relative to wild type = 1.0)?
Resp: 0.69 relative to wild type

Values were extracted from patent US20060058231A1.
